Data provenance: paper PMC5508973

Tested on: MM.1S
Test: cells
Type: cell-based
Conditions: Homo sapiens, MM1.S, 24 h

LINE NOTATION: O=C(O)CCCc1ccc(N(CCCl)CCCl)cc1
IC50 / µM: 47.4
